Collected literature values of Ki measured for Carbonic anhydrase 1 (Homo sapiens).
MEASUREMENT LABEL: Ki (nM)

{"COMPOUND": "NS(=O)(=O)c1cc(S(N)(=O)=O)c(NC(=O)CN(CCN(CCN(CC(=O)O)CC(=O)Nc2cc(Cl)c(S(N)(=O)=O)cc2S(N)(=O)=O)CC(=O)O)CC(=O)O)cc1Cl", "Ki (nM)": 63}
{"COMPOUND": "CCCCc1cc(-c2ccccc2)cc(-c2ccccc2)[n+]1CCc1ccc(S(N)(=O)=O)cc1", "Ki (nM)": 290000}
{"COMPOUND": "CCCCn1c(-c2ccc(S(=O)(=O)c3ccc(Cl)cc3)cc2)n[nH]c1=S", "Ki (nM)": 273000}
{"COMPOUND": "CCCC(CCC)C(=O)/N=c1/sc(S(N)(=O)=O)nn1C", "Ki (nM)": 70}
{"COMPOUND": "NS(=O)(=O)c1ccc(N/C(S)=N/C(Cc2c[nH]cn2)C(=O)O)cc1 (stereo not given)", "Ki (nM)": 32}

P: CCCNS(=O)(=O)NCCC
Q: NS(=O)(=O)c1ccc(-c2cn([C@@H]3O[C@H](CO)[C@@H](O)[C@H](O)[C@H]3O)nn2)cc1
Compare P and Q and name the one whose reported Ki is smaller. Your answer should be the label attached to the chosen record.
Q
